Values were extracted from patent US8927500B2.

target: MDMX (Homo sapiens, UniProt O15151); assay: Competitive fluorescence polarization assay for MDMX; assay type: binding; conditions: competitive FP assay, read-out: IC50 (MDMX)
Sequence (O15151 1-125): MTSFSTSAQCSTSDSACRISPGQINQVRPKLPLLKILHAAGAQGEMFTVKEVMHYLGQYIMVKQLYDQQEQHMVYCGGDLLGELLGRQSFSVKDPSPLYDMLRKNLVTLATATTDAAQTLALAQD
Where a SMILES comes first, the peptide text is derived from it. Bridges are numbered along the chain shown (N, C = ends). [ ]: non-standard residue; d: D form. R8 = C=CCCCCCC[C@@](C)(N)C(=O)O; Cba = N[C@@H](CC1CCC1)C(=O)O; S5 = C=CCCC[C@](C)(N)C(=O)O; Nle = CCCC[C@H](N)C(=O)O; Ac3c = NC1(C(=O)O)CC1
IC50 overview
parameter: IC50

compound	experimental-result
CCCC[C@H](NC(=O)[C@H](C)NC(=O)[C@H](C)NC(=O)[C@]1(C)CCCC=CCCCCCC[C@@](C)(NC(=O)[C@H](Cc2ccccc2)NC(=O)[C@@H](NC(=O)[C@H](CC(C)C)NC(C)=O)[C@@H](C)O)C(=O)N[C@@H](C)C(=O)N[C@@H](Cc2ccc(O)cc2)C(=O)N[C@@H](Cc2c[nH]c3ccccc23)C(=O)N[C@@H](C)C(=O)N[C@@H](CCC(N)=O)C(=O)N[C@@H](CC(C)C)C(=O)N1)C(=O)N(C)CC(N)=O (single isomer, unassigned)	< 0.01 µM
CCCC[C@H](NC(=O)[C@H](C)NC(=O)[C@H](CO)NC(=O)[C@]1(C)CCCC=CCCCCCC[C@@](C)(NC(=O)[C@H](Cc2ccccc2)NC(=O)[C@@H](NC(=O)[C@H](CC(C)C)NC(C)=O)[C@@H](C)O)C(=O)N[C@@H](CCC(=O)O)C(=O)N[C@@H](Cc2ccc(O)cc2)C(=O)N[C@@H](Cc2c[nH]c3ccccc23)C(=O)N[C@@H](CO)C(=O)N[C@@H](CCC(N)=O)C(=O)N[C@@H](CC2CCC2)C(=O)N1)C(=O)N[C@@H](C)C(N)=O [compound 245] (Ac-LTF[R8]EYWSQ[Cba][S5]SA[Nle]A-NH2; staple 4-11)	0.01 to 0.1 µM
CC(=O)N[C@@H](CC(C)C)C(=O)N[C@H](C(=O)N[C@@H](Cc1ccccc1)C(=O)N[C@]1(C)CCCCCCC=CCCC[C@@](C)(C(=O)N[C@@H](CO)C(=O)N[C@@H](C)C(=O)N[C@@H](C)C(N)=O)NC(=O)[C@H](CC(C)C)NC(=O)[C@H](C)NC(=O)[C@H](C(C)C)NC(=O)[C@H](Cc2c[nH]c3ccccc23)NC(=O)[C@H](Cc2ccc(O)cc2)NC(=O)[C@H](C)NC1=O)[C@@H](C)O [compound 196] (Ac-LTF[R8]AYWVAL[S5]SAA-NH2; staple 4-11)	0.1 to 1 µM
CC[C@H](C)[C@H](NC(=O)[C@H](C)NC(=O)[C@H](C)NC(=O)[C@]1(C)CCCC=CCCCCCC[C@@](C)(NC(=O)[C@H](Cc2ccccc2)NC(=O)[C@@H](NC(=O)[C@H](CC(C)C)NC(C)=O)[C@@H](C)O)C(=O)N[C@@H](CCC(=O)O)C(=O)N[C@@H](Cc2ccc(C(=O)O)cc2)C(=O)N[C@@H](Cc2c[nH]c3cc(Cl)ccc23)C(=O)N[C@@H](C)C(=O)N[C@@H](CCC(N)=O)C(=O)N[C@@H](CC2CCC2)C(=O)N1)C(=O)N[C@H](C)C(N)=O (single isomer, unassigned)	0.01 to 0.1 µM
CC[C@H](C)[C@H](NC(C)=O)C(=O)N[C@H](C(=O)N[C@@H](Cc1ccccc1)C(=O)N[C@]1(C)CCCCCCC=CCCC[C@@](C)(C(=O)N[C@@H](C)C(=O)N[C@@H](Cc2c[nH]cn2)C(=O)N[C@@H](Cc2ccccc2)C(=O)N[C@@H](C)C(N)=O)NC(=O)[C@H](CC(C)C)NC(=O)[C@H](CCC(N)=O)NC(=O)[C@H](C(C)C)NC(=O)[C@H](Cc2c[nH]c3ccccc23)NC(=O)[C@H](Cc2c[nH]cn2)NC(=O)[C@H](CCC(=O)O)NC1=O)[C@@H](C)O (single isomer, unassigned)	0.1 to 1 µM
CCCC[C@H](NC(=O)[C@H](Cc1c[nH]c2ccccc12)NC(=O)[C@H](C)NC(=O)[C@]1(C)CCCC=CCCCCCC[C@@](C)(NC(=O)[C@H](Cc2ccccc2)NC(=O)[C@@H](NC(=O)[C@H](CCC(=O)O)NC(C)=O)[C@@H](C)O)C(=O)N[C@@H](CCC(=O)O)C(=O)N[C@@H](Cc2ccc(O)cc2)C(=O)N[C@@H](Cc2c[nH]c3ccccc23)C(=O)N[C@@H](C)C(=O)N[C@@H](CCC(N)=O)C(=O)N[C@@H](CC(C)C)C(=O)N1)C(=O)N[C@H](C)C(N)=O [compound 278] (Ac-ETF[R8]EYWAQL[S5]AW[Nle][dA]-NH2; staple 4-11)	0.01 to 0.1 µM
CC(=O)N[C@@H](Cc1ccccc1)C(=O)N[C@]1(C)CCCCCCC=CCCC[C@@](C)(C(=O)N[C@@H](C)C(=O)N[C@@H](C)C(=O)N[C@@H](Cc2ccccc2)C(N)=O)NC(=O)[C@H](CC(C)C)NC(=O)C2(CC2)NC(=O)[C@H](CCC(=O)O)NC(=O)[C@H](Cc2c[nH]c3ccccc23)NC(=O)[C@H](Cc2ccc(O)cc2)NC(=O)[C@H](C)NC1=O [compound 18] (Ac-F[R8]AYWE[Ac3c]L[S5]AAF-NH2; staple 2-9)	0.01 to 0.1 µM
CCCC[C@H](NC(=O)[C@H](C)NC(=O)[C@H](C)NC(=O)[C@]1(C)CCC/C=C/CCCCCC[C@@](C)(NC(=O)[C@H](Cc2ccccc2)NC(=O)[C@@H](NC(=O)[C@H](CC(C)C)NC(C)=O)[C@@H](C)O)C(=O)N[C@@H](C)C(=O)N[C@@H](Cc2ccc(O)cc2)C(=O)N[C@@](C)(Cc2c[nH]c3ccccc23)C(=O)N[C@@H](C)C(=O)N[C@@H](CCC(N)=O)C(=O)N[C@@H](CC(C)C)C(=O)N1)C(=O)N[C@@H](C)C(N)=O	0.01 to 0.1 µM

----------
The entries below are paired with their reported pKi.
molecular target: MDMX (Homo sapiens, UniProt O15151); experiment: Competitive fluorescence polarization assay for MDMX; type: binding; conditions: competitive FP assay, read-out: Ki (MDMX)
pKi: −log10 of the molar value. Where a SMILES comes first, the peptide text is derived from it. Bridges are numbered along the chain shown (N, C = ends). [ ]: non-standard residue; d: D form. Phe(4-COOH) = N[C@@H](Cc1ccc(C(=O)O)cc1)C(=O)O; 2Nal = N[C@@H](Cc1ccc2ccccc2c1)C(=O)O; R8 = C=CCCCCCC[C@@](C)(N)C(=O)O; Cba = N[C@@H](CC1CCC1)C(=O)O; S5 = C=CCCC[C@](C)(N)C(=O)O; Ac3c = NC1(C(=O)O)CC1

molecule	tested-system	pKi
CC(=O)N[C@@H](CC(C)C)C(=O)N[C@H](C(=O)N[C@@H](Cc1ccccc1)C(=O)N[C@]1(C)CCCCCCC=CCCC[C@@](C)(C(=O)N[C@@H](CO)C(=O)N[C@@H](C)C(=O)N[C@@H](C)C(N)=O)NC(=O)[C@H](CC2CCC2)NC(=O)[C@H](CCC(N)=O)NC(=O)[C@H](C)NC(=O)[C@H](Cc2ccc3ccccc3c2)NC(=O)[C@H](Cc2ccc(O)cc2)NC(=O)[C@H](CCC(=O)O)NC1=O)[C@@H](C)O [compound 254] (Ac-LTF[R8]EY[2Nal]AQ[Cba][S5]SAA-NH2; staple 4-11)	MDMX (Homo sapiens, UniProt O15151)	7.00 to 8.00
CC[C@H](C)[C@H](NC(=O)[C@H](C)NC(=O)[C@H](C)NC(=O)[C@]1(C)CCCC=CCCCCCC[C@@](C)(NC(=O)[C@H](Cc2ccccc2)NC(C)=O)C(=O)N[C@@H](C)C(=O)N[C@@H](Cc2ccc(O)cc2)C(=O)N[C@@H](Cc2c[nH]c3ccccc23)C(=O)N[C@@H](CCC(=O)O)C(=O)NC2(CC2)C(=O)N[C@@H](CC(C)C)C(=O)N1)C(N)=O [compound 19] (Ac-F[R8]AYWE[Ac3c]L[S5]AAI-NH2; staple 2-9)	MDMX (Homo sapiens, UniProt O15151)	7.00 to 8.00
CC[C@H](C)[C@H](NC(=O)[C@H](C)NC(=O)[C@H](C)NC(=O)[C@]1(C)CCCC=CCCCCCC[C@@](C)(NC(=O)[C@H](Cc2ccccc2)NC(=O)[C@@H](NC(=O)[C@H](CC(C)C)NC(C)=O)[C@@H](C)O)C(=O)N[C@@H](C)C(=O)N[C@@H](Cc2ccc(C(=O)O)cc2)C(=O)N[C@@H](Cc2c[nH]c3ccccc23)C(=O)N[C@@H](C)C(=O)N[C@@H](CCC(N)=O)C(=O)N[C@@H](CC2CCC2)C(=O)N1)C(=O)N[C@H](C)C(N)=O [compound 267] (Ac-LTF[R8]A[Phe(4-COOH)]WAQ[Cba][S5]AAI[dA]-NH2; staple 4-11)	MDMX (Homo sapiens, UniProt O15151)	> 8.00
